# System: ICR mice
# Experiment Description: Test of increase in fecal protein concentration using mice
# Type: in vivo, mouse
# Test Conditions: Mus musculus, po, 9 h, 5 mg/kg oral, male ICR mice, feces collected 3 to 9 hours after feeding started, control group = 1; read-out: Fecal protein, Folds (vs. control)
Counter-ions that a name gives are not always drawn.
response vs control in vivo at 5 mg/kg values by entry

| Compound | Value Unit | response vs control in vivo at 5 mg/kg |
| --- | --- | --- |
| N=C(N)Nc1ccc(C(=O)Oc2ccc3c(c2)CCC3CC(=O)N(CC(=O)O)Cc2ccc(CC(=O)O)cc2)cc1 (centres unmarked) [Example 52] | % | 178 |
| N=C(N)Nc1ccc(C(=O)Oc2ccc3c(C(=O)N(CCC(=O)O)Cc4csc(C(=O)O)c4)csc3c2)cc1 [Example 54] | % | 170 |
| N=C(N)Nc1ccc(C(=O)Oc2ccc3c(c2)CCC3CC(=O)N(CC(=O)O)Cc2ccc3sc(C(=O)O)cc3c2)cc1 (centres unmarked) [Example 51] | % | 166 |
| N=C(N)Nc1ccc(C(=O)Oc2ccc3c(c2)CCCC3CC(=O)N2Cc3cc(C(=O)O)ccc3C[C@@H]2C(=O)O)cc1 (some centres unmarked) [Example 30] | % | 168 |
| N=C(N)Nc1ccc(C(=O)Oc2ccc3c(c2)CCC(C(=O)N(CC(=O)O)Cc2csc(C(=O)O)c2)C3)cc1 (centres unmarked) [Example 4, monohydrochloride] | % | 262 |
| N=C(N)Nc1ccc(C(=O)Oc2ccc3c(c2)CCC3CC(=O)N(CC(=O)O)Cc2cccc(C(=O)O)c2)cc1 (centres unmarked) [Example 11] | % | 263 |
| N=C(N)Nc1ccc(C(=O)Oc2ccc3c(C(=O)N(CCC(=O)O)Cc4csc(C(=O)O)c4)cccc3c2)cc1 [Example 43] | % | 198 |
| N=C(N)Nc1ccc(C(=O)Oc2ccc3c(c2)CCC(C(=O)N(CC(=O)O)Cc2ccc(CC(=O)O)cc2)C3)cc1 (centres unmarked) [Example 20] | % | 223 |
| N=C(N)Nc1ccc(C(=O)Oc2ccc3c(C(=O)N(CC(=O)O)Cc4ccc(CC(=O)O)cc4)cccc3c2)cc1 [Example 17] | % | 270 |
| N=C(N)Nc1ccc(C(=O)Oc2ccc3cc(C(=O)N[C@@H](Cc4ccc(C(=O)O)cc4)C(=O)O)ccc3c2)cc1 [Example 37] | % | 174 |
| N=C(N)Nc1ccc(C(=O)Oc2ccc3cc(C(=O)N(CC(=O)O)[C@@H](Cc4ccccc4)C(=O)O)ccc3c2)cc1 [Example 39] | % | 108 |
| N=C(N)Nc1ccc(C(=O)Oc2ccc3c(c2)CCCC3CC(=O)N(CC(=O)O)Cc2ccc(CC(=O)O)cc2)cc1 (centres unmarked) [Example 26] | % | 170 |
| N=C(N)Nc1ccc(C(=O)Oc2ccc3c(c2)CCC3CC(=O)N(CC(=O)O)[C@@H](Cc2ccccc2)C(=O)O)cc1 (some centres unmarked) [Example 46] | % | 184 |
| N=C(N)Nc1ccc(C(=O)Oc2ccc3c(C(=O)N(CC(=O)O)[C@@H](Cc4ccccc4)C(=O)O)cccc3c2)cc1 [Example 40] | % | 189 |

---

Below: a set of entries, each annotated with reported response vs control in vivo at 5 mg/kg.
# Tested on: ICR mice
# Experiment Description: Test of increase in fecal protein concentration using mice
# Assay type: in vivo, mouse
# Test Conditions: Mus musculus, po, 9 h, 5 mg/kg oral, male ICR mice, feces collected 3 to 9 hours after feeding started, control group = 1; read-out: Fecal protein, Folds (vs. control)

| Molecule | response vs control in vivo at 5 mg/kg [%] |
| --- | --- |
| N=C(N)Nc1ccc(C(=O)Oc2ccc3cc(C(=O)N(CC(=O)O)Cc4cccc(C(=O)O)c4)ccc3c2)cc1 | 179 |
| C[C@H](C(=O)O)N(Cc1csc(C(=O)O)c1)C(=O)CC1CCc2cc(OC(=O)c3ccc(NC(=N)N)cc3)ccc21 (stereo partly shown) | 179 |
| N=C(N)Nc1ccc(C(=O)Oc2ccc3c(c2)CCC3CC(=O)N(CC(=O)O)Cc2csc(C(=O)O)c2)cc1 (stereo not shown) | 207 |
| N=C(N)Nc1ccc(C(=O)Oc2ccc3c(C(=O)N(CC(=O)O)Cc4cccc(C(=O)O)c4)csc3c2)cc1 | 226 |
| N=C(N)Nc1ccc(C(=O)Oc2ccc3c(C(=O)N(CC(=O)O)Cc4csc(C(=O)O)c4)csc3c2)cc1 | 273 |
| Cl.N=C(N)Nc1ccc(C(=O)Oc2ccc3c(c2)CCCC3CC(=O)N(CC(=O)O)Cc2cccc(C(=O)O)c2)cc1 (stereo not shown) [Example 2, monohydrochloride] | 255 |
| N=C(N)Nc1ccc(C(=O)Oc2ccc3c(c2)CCCC3CC(=O)N(CCc2ccc(C(=O)O)cc2)CC(=O)O)cc1 (stereo not shown) | 154 |

---

# Tested on: mouse trypsin (m-trypsin)
# Construct: mouse trypsin (m-trypsin)
# Experiment Description: Trypsin inhibitory activity, mouse trypsin purified from small intestine contents, BZiPAR fluorescent substrate
# Type: biochemical
# Test Conditions: 30 min at room temperature
# Experimental: 1. Confirmation of Trypsin Inhibitory Activity in Humans and Mice […] The compound was dissolved in dimethyl sulfoxide (DMSO), and diluted to an arbitrary concentration (A). […] Fluorescent signals were detected at a maximum excitement (Ex)/fluorescent wavelength (Em)=497 nm/520 nm using a Tecan Safire Fluorometer. […] Based on the obtained inhibitory rates, the trypsin inhibitory activities (IC50 values, nM) were calculated from the non-linear regression.
pIC50: −log10 of the molar value. Counter-ions that a name gives are not always drawn.

| Compound | pIC50 |
| --- | --- |
| N=C(N)Nc1ccc(C(=O)Oc2ccc3cc(C(=O)N[C@@H](Cc4ccc(C(=O)O)cc4)C(=O)O)ccc3c2)cc1 | 9.74 |
| N=C(N)Nc1ccc(C(=O)Oc2ccc3c(c2)CCC(C(=O)N(CCC(=O)O)Cc2csc(C(=O)O)c2)C3)cc1 (stereo not drawn) | 9.27 |
| N=C(N)Nc1ccc(C(=O)Oc2ccc3c(C(=O)N(CC(=O)O)Cc4ccc5sc(C(=O)O)cc5c4)cccc3c2)cc1 | 9.77 |
| N=C(N)Nc1ccc(C(=O)Oc2ccc3cc(C(=O)N(CC(=O)O)Cc4cccc(C(=O)O)c4)ccc3c2)cc1 | 9.59 |
| N=C(N)Nc1ccc(C(=O)Oc2ccc3c(C(=O)N(CC(=O)O)[C@@H](Cc4ccccc4)C(=O)O)cccc3c2)cc1 | 9.57 |
| N=C(N)Nc1ccc(C(=O)Oc2ccc3c(c2)CCC(C(=O)N(CC(=O)O)[C@@H](Cc2ccccc2)C(=O)O)C3)cc1 (stereo partly drawn) | 9.66 |
| N=C(N)Nc1ccc(C(=O)Oc2ccc3cc(C(=O)N(CC(=O)O)Cc4ccc5sc(C(=O)O)cc5c4)ccc3c2)cc1 | 9.80 |
| N=C(N)Nc1ccc(C(=O)Oc2ccc3c(c2)CCCC3CC(=O)N2Cc3cc(C(=O)O)ccc3C[C@@H]2C(=O)O)cc1 (stereo partly drawn) | 9.55 |
| N=C(N)Nc1ccc(C(=O)Oc2ccc3c(C(=O)N(CC(=O)O)Cc4ccc(CC(=O)O)cc4)csc3c2)cc1 | 9.34 |
| N=C(N)Nc1ccc(C(=O)Oc2ccc3cc(C(=O)N(CC(=O)O)Cc4ccc(CC(=O)O)cc4)ccc3c2)cc1 | 9.62 |
| N=C(N)Nc1ccc(C(=O)Oc2ccc3c(c2)CCC3CC(=O)N(CC(=O)O)Cc2ccc3sc(C(=O)O)cc3c2)cc1 (stereo not drawn) | 9.42 |
| N=C(N)Nc1ccc(C(=O)Oc2ccc3c(C(=O)N(CC(=O)O)Cc4ccc5sc(C(=O)O)cc5c4)csc3c2)cc1 | 9.85 |
| Cl.N=C(N)Nc1ccc(C(=O)Oc2ccc3c(c2)CCCC3CC(=O)N(CC(=O)O)Cc2cccc(C(=O)O)c2)cc1 (stereo not drawn) [Example 2, monohydrochloride] | 9.29 |
| C[C@H](C(=O)O)N(Cc1csc(C(=O)O)c1)C(=O)CC1CCc2cc(OC(=O)c3ccc(NC(=N)N)cc3)ccc21 (stereo partly drawn) | 9.36 |
| N=C(N)Nc1ccc(C(=O)Oc2ccc3c(c2)CCC3CC(=O)N(CC(=O)O)Cc2ccc(CC(=O)O)cc2)cc1 (stereo not drawn) | 9.26 |
| N=C(N)Nc1ccc(C(=O)Oc2ccc3c(C(=O)N(CC(=O)O)Cc4cccc(C(=O)O)c4)csc3c2)cc1 | 9.51 |
| N=C(N)Nc1ccc(C(=O)Oc2ccc3c(c2)CCCC3CC(=O)N(CC(=O)O)Cc2ccc3sc(C(=O)O)cc3c2)cc1 (stereo not drawn) | 9.46 |
| N=C(N)Nc1ccc(C(=O)Oc2ccc3c(c2)CCCC3CC(=O)N(CC(=O)O)Cc2csc(CC(=O)O)c2)cc1 (stereo not drawn) | 9.64 |
| N=C(N)Nc1ccc(C(=O)Oc2ccc3c(c2)CCCC3CC(=O)N(CC(=O)O)Cc2ccc(CC(=O)O)cc2)cc1 (stereo not drawn) | 9.47 |
| N=C(N)Nc1ccc(C(=O)Oc2ccc3c(C(=O)N(CC(=O)O)Cc4csc(C(=O)O)c4)csc3c2)cc1 | 9.44 |
| C[C@H](C(=O)O)N(Cc1csc(C(=O)O)c1)C(=O)CC1CCCc2cc(OC(=O)c3ccc(NC(=N)N)cc3)ccc21 (stereo partly drawn) [Example 19] | 9.22 |
| N=C(N)Nc1ccc(C(=O)Oc2ccc3c(c2)CCCC3CC(=O)N(CCC(=O)O)Cc2csc(C(=O)O)c2)cc1 (stereo not drawn) | 9.33 |
| N=C(N)Nc1ccc(C(=O)Oc2ccc3c(c2)CCCC3CC(=O)N(CC(=O)O)Cc2cccc(CC(=O)O)c2)cc1 (stereo not drawn) | 9.66 |
| N=C(N)Nc1ccc(C(=O)Oc2ccc3c(C(=O)N(CCC(=O)O)Cc4csc(C(=O)O)c4)cccc3c2)cc1 | 9.72 |
| N=C(N)Nc1ccc(C(=O)Oc2ccc3cc(C(=O)N(CC(=O)O)Cc4csc(C(=O)O)c4)ccc3c2)cc1 [Example 1, monohydrochloride] | 9.39 |
| N=C(N)Nc1ccc(C(=O)Oc2ccc3c(c2)CCCC3CC(=O)N(CC(=O)O)[C@@H](Cc2ccccc2)C(=O)O)cc1 (stereo partly drawn) | 9.36 |
| N=C(N)Nc1ccc(C(=O)Oc2ccc3c(C(=O)N(CC(=O)O)Cc4cccc(C(=O)O)c4)cccc3c2)cc1 | 9.74 |
